assay: Plasma protein binding by equilibrium dialysis; assay type: in vitro ADME; details: plasma, 37 °C, read-out: Plasma Protein Binding Free %
The label is Y for fraction unbound at 6 h, 5 μM below 0.006 and N for fraction unbound at 6 h, 5 μM equal to or exceeding 0.006.

In the record for CC12CC34C=C(I)C(=O)C(C)(CCC(=O)Nc5c(O)ccc(C(=O)O)c5O)C3C(CC1C4)O2 (stereo not shown) , is fraction unbound at 6 h, 5 μM less than 0.006? N

Below 0.006 on fraction unbound at 6 h, 5 μM? Entry CC(C)(C)OC(=O)C=CC1=CC23CC4CC(OC4(C)C2)C3C(C)(CCC(=O)Nc2c(O)ccc(C(=O)O)c2O)C1=O (stereo not shown) N

Source listed as paper PMC9027111.
